# Test system: OVCAR-5 ovarian
# procedure.details: NCI tumour cell line growth inhibition, 48 h
reported.metric: TGI

* CCOC(=O)c1ccc2nc(NC(=O)COC(=O)CSc3nc(C)cc(C)n3)sc2c1 | 86.1 µM
* Nc1ncnc2c1c(C(F)(F)F)cn2[C@@H]1O[C@H](CO)[C@@H](O)[C@H]1O | > 72.2 µM
* CC(C)[C@@H]1C=C(c2ccccc2)c2ccccc2C1C(C#N)(C#N)C(C)C (some centres undefined) | > 100 µM
* NCCCCCS(=O)(=O)O | > 100 µM
* Cc1ccc(S(=O)(=O)n2cncc2CO)cc1 | > 100 µM
* O=c1[nH]cc(CS(=O)(=O)Cc2c[nH]c(=O)[nH]c2=O)c(=O)[nH]1 | > 100 µM
* OCC(O)C(O)c1nn(-c2ccccc2)c2nc3cc(Cl)c(Cl)cc3nc12 (centres undefined) | 58.4 µM
* Nc1[nH]c(=O)ncc1F | > 100 µM
* CCCCc1c2c(nc3c1CCc1cc4c(nc1-3)-c1nc3c(c(CCCC)c1CC4)CCC/C3=C\c1ccccc1)/C(=C/c1ccccc1)CCC2 | > 100 µM
* CC(=O)NC1C(CO)O[C@@H]2OC(C)(C)O[C@H]12 (some centres undefined) | > 100 µM
* CC(CCC(=O)O)[C@H]1CCC2[C@H]3C(CC[C@@]21C)[C@@]1(C)CCC(O)C[C@H]1C[C@@H]3O (some centres undefined) | > 100 µM
* Cc1cc2ccccc2c[n+]1CC(O)C[n+]1cc2ccccc2cc1C | > 100 µM
* CCCCCc1cc2c(cc1O)CC[C@@H]1[C@@H]2CC[C@]2(C)[C@@H](O)CC[C@@H]12 | 33.6 µM
* Cc1nc(C)c(C(=O)Nc2cccc3c2C(=O)NC3=O)cc1C(=O)Nc1cccc2c1C(=O)NC2=O | > 100 µM
* C/C(=N\NC(N)=O)C(CN1CCCCC1)C(c1ccccc1)c1c(O)c2ccccc2oc1=O (centres undefined) | > 100 µM
* Nc1ccc2c(c1)C(=O)c1ccccc1-2 | > 100 µM
* CC(=O)Oc1ccc(OC(C)=O)c2ccccc12 | 31.7 µM
* CN(C)CCOC(=O)COc1ccc(Cl)cc1 | > 100 µM
* O=C(C1=C(C(=O)c2ccccc2)SC2(S1)C(C(=O)c1ccccc1)=C(C(=O)c1ccccc1)Sc1c2ssc1=O)c1ccccc1 | 59.2 µM
* CC(=O)/C=C/C=C(\C)CC/C=C(\C)CC(C)C | > 100 µM
* N#Cc1cccc(NC(=O)c2ccc(C(=O)O)c(C(=O)c3ccc(C(=O)O)c(C(=O)Nc4cccc(C#N)c4)c3)c2)c1 | > 100 µM
* CC(C)(C)N=C1CC(C)(C)c2ccccc2C(=Nc2ccccc2)S1 | > 100 µM
* CCOC(=O)C(C)(C)Oc1ccc2c(=O)cc(-c3ccccc3)oc2c1 | > 100 µM
* O=C(N/N=C(/c1nc2ccc(Cl)cc2[nH]c1=O)C(O)c1ccc(Cl)cc1Cl)c1ccncc1 (centres undefined) | > 100 µM

* * *

# Test system: SK-MEL-2 melanoma
# procedure.details: NCI tumour cell line growth inhibition, 48 h; in the data active means GI50 below about 0.43 µM; inactive means the rest
Outcomes: T for active, F for inactive

* CCN(CC)CCN1C(=O)c2c(c(C)c3c(oc4cc(O)ccc43)c2C)C1=O | F
* N#Cc1c(NC(=O)c2ccccc2)sc2c1CCC(=O)C2 | F
* COc1ccc(/C=C/c2c(C(=O)/C=C/c3ccc(Cl)cc3)c(C)nc3ccccc23)cc1 | F
* COc1ccc(OC)c(-c2nc3sccn3c2/C=C2/C(=O)Nc3ccc(Cl)cc32)c1 | F
* CC(=O)OCC1OC(OC2C(COC(C)=O)OC(OCCC[S-])C(OC(C)=O)C2OC(C)=O)C(OC(C)=O)C(OC(C)=O)C1OC(C)=O.[Au+].c1ccc(CN2[CH-]N(Cc3ccccc3)C(c3ccccc3)=C2c2ccccc2)cc1 (stereo not given) | F
* CN1/C(=C\C(I)C(I)C2=[N+](C)c3ccccc3C2(C)C)C(C)(C)c2ccccc21 (stereo not given) | T
* CC1(C)CCC[C@]23C(=O)O[C@](O)(C(=O)C4=C[C@@](C)(/C=C/CCCc5ccc6ccc7cccc8ccc5c6c78)CC[C@@]42O)[C@@H]13 | T
* C=C(C=O)C1CC(=O)C(C(=O)OC)[C@@H]2O[C@@](C)(CC2=O)C[C@@H]2OC(=O)[C@]3(O[C@@H]23)[C@@H](C(=O)OC)C1 (stereo not given in full) | F
* COc1ccc(N2CCN(C(=O)c3ccccc3Nc3ccnc(C(F)(F)F)c3)CC2)cc1 | F
* COc1ccc(SC2c3cc(OC)c(OC)cc3Oc3nc(N)c(C#N)c(N)c32)cc1 (stereo not given) | F
* Nc1ncnc2c1c(C(F)(F)F)cn2[C@@H]1O[C@H](CO)[C@@H](O)[C@H]1O | F
* COc1ccc(-c2nn(-c3cccc(Cl)c3)cc2C=C(C#N)C#N)cc1 | F
* CC(C)C[C@H](NC(=O)[C@H](CCc1ccccc1)NC(=O)CN1CCOCC1)C(=O)N[C@@H](Cc1ccccc1)C(=O)N[C@@H](CC(C)C)C(=O)[C@@]1(C)CO1 | T
* Oc1ccc2oc3ncc(Cl)c(-c4ccccc4)c3c2c1 | F
* C=C(CN1CCN(c2ccccc2OC)CC1)c1ccc(C(=O)Nc2ccccc2N)cc1 | F

* * *

# Tested on: DU-145 prostate
# procedure.details: NCI tumour cell line growth inhibition, 48 h
reported.metric: TGI (µM)

• O=C(c1ccccc1)C1C(C(=O)c2ccccc2)N1Cc1ccccc1 (stereo not given) = 85.8
• Cc1ccc2c(c1)C(=O)c1c-2n(CCCN)c(=O)c2cc([N+](=O)[O-])ccc12 = 0.89
• NC(=O)c1cn(C2OC(CO)C(O)C2O)c2ncnc(N)c12 (stereo not given) = 0.0487

* * *

# Tested on: MCF7 breast
# procedure.details: NCI tumour cell line growth inhibition, 48 h
reported.metric: TGI

* CC(CCC(=O)O)[C@H]1CCC2[C@H]3C(CC[C@@]21C)[C@@]1(C)CCC(O)C[C@H]1C[C@@H]3O (some centres not stated) | > 100 µM
* Cn1c(=O)c2c(-c3ccccc3)onc2n(C)c1=O | > 100 µM
* Cc1c2c3cc(O)ccc3nc-2n(C)c2ccccc12 | 9.82 µM
* O=C1c2ccccc2C(=O)c2c(NCCCNCCO)ccc(NCCCNCCO)c21 | 10.8 µM
* N#CC1=C(N)C(C#N)(C#N)C(c2ccc(F)cc2)C=C1C1CC1 (configuration not stated) | 17.1 µM
* COc1ccc(-c2ccc(/C=C/C(=O)NO)cc2)cc1 | 19.2 µM
* O=C(N/N=C\c1cccc2ccccc12)Nc1ccc([N+](=O)[O-])cc1 | > 100 µM
* CCOC(=O)c1nc2c3c(ncn2n1)Oc1c(c(-c2ccccc2)nn1-c1ccccc1)C3c1ccc(Cl)cc1 (configuration not stated) | > 100 µM
* COc1ccccc1/C=C\c1cnnc2ccccc12 | > 10 µM
* CCCCCCCCCCCCn1c(C)nc2ccccc21 | 23.3 µM
* O=C1c2[nH]cc(CN3CCNCC3)c2C(=O)c2c1c(O)c1ccccc1c2O | > 100 µM
* CC[C@]12C=CCN3CCC4(c5cc(N=Nc6ccccc6)c(OC)cc5N(C)[C@H]4[C@@](O)(C(=O)OC)[C@@H]1OC(C)=O)[C@@H]32 (some centres not stated) | 34.4 µM
* Cc1ccc(C(=O)N(C(C)C)C(C)C)cc1N=NN(C)C | > 100 µM
* COc1cc(-c2cc(-c3ccc(N(C)C)cc3)nc(N3CCOCC3)c2C#N)cc(OC)c1OC | > 55.2 µM
* N#CCCC1C(C#N)C2CC1C1C3C=CC(C3)C21 (configuration not stated) | > 100 µM
* COc1ccc(C(=O)c2cc(OC)c(OC)c(OC)c2)cc1OC(C)=O | > 100 µM
* OCC1OC(n2cnc3cccnc32)CC1O (configuration not stated) | > 100 µM
* S=c1nc[nH]c2c1ncn2Cc1ccco1 | > 100 µM
* CC1(C)N=C(N)N=C(N)N1c1cccc(C#N)c1 | > 100 µM
* Cc1cc(Cc2c(F)c(F)c(Cc3cc(C)no3)c(F)c2F)on1 | > 100 µM
* Cn1nc(C(F)(F)F)c(-c2ccc(Cl)c(C(F)(F)F)c2)c1-c1ccc(OCc2ccc(Cl)cc2)cc1O | 6.01 µM
* COC(=O)[C@H](C)N1C(=O)N[C@@H](C(C)C)C1=O | > 100 µM
* O=c1[nH]cc(CS(=O)(=O)Cc2c[nH]c(=O)[nH]c2=O)c(=O)[nH]1 | > 100 µM
* O=C1/C(=C/c2ccccc2)CCc2ccc(Cl)nc21 | 13.2 µM
* CC(C)CCC[C@@H](C)[C@H]1CC[C@H]2[C@@H]3CC=C4C[C@@H](OC(=O)c5cccc6c(=O)c7ccccc7[nH]c56)CC[C@]4(C)[C@H]3CC[C@]12C | > 75 µM
* CCCCCc1cc2c(cc1O)CC[C@@H]1[C@@H]2CC[C@]2(C)[C@@H](O)CC[C@@H]12 | 40.2 µM
* CC1(C)COC(c2cccc(C3=NC(C)(C)CO3)c2Br)=N1 | > 100 µM
* COc1ccc(/C(C)=C(\c2ccc(Cl)cc2)c2ccc(OCCN3CCCC3)cc2)cc1 | 5.83 µM
* C=C(C=O)C1CC(=O)C(C(=O)OC)[C@@H]2O[C@@](C)(CC2=O)C[C@@H]2OC(=O)[C@]3(O[C@@H]23)[C@@H](C(=O)OC)C1 (some centres not stated) | 28 µM
* S=C(N/N=C\C=N/NC(=S)N1CCCCCC1)N1CCCCCC1 | > 100 µM
* C/C(=C\c1ccc(Cl)cc1)C(C)(C)C(=O)O | > 100 µM
* CC(=O)NC1C(CO)O[C@@H]2OC(C)(C)O[C@H]12 (some centres not stated) | > 100 µM
* CC1=C(C(=O)OCCc2ccc([N+](=O)[O-])cc2)C(c2ccccc2[N+](=O)[O-])C(C(=O)OC(C)C)=C(C)N1 (configuration not stated) | > 100 µM
* COC(=O)C(/C(=N/NC(=O)c1ccncc1)C(=O)Nc1ccccc1OC)c1nc2ccc(Cl)cc2[nH]c1=O (configuration not stated) | > 100 µM
* S=c1nc(-c2nc(=S)[nH]c3c2CCCCCCCCCC3)c2c([nH]1)CCCCCCCCCC2 | > 100 µM
* C=C(CN1CCN(c2ccccc2OC)CC1)c1ccc(C(=O)Nc2ccccc2N)cc1 | > 50 µM
* CC(CN=C(CC(=O)c1ccc(Br)cc1)c1ccccc1)N=C(CC(=O)c1ccc(Br)cc1)c1ccccc1 (configuration not stated) | > 100 µM
